assayed system: UniProt P47901
quantity name: Ki

// returns reported Ki for input CCOc1ccc(OC)cc1C1(N2CC3(CN(C4CCN(C)CC4)C3)C2)C(=O)N(S(=O)(=O)c2ccc(C)cc2)c2ccc(C#N)cc21 (racemic) 10 to 100 nM

Would you kindly repeat that for COc1ccc(S(=O)(=O)N2C(=O)C(c3ccccc3OC)(N3CC4(CN(C5CCN(C)CC5)C4)C3)c3cc(C#N)ccc32)nc1 (single isomer, unassigned; (+)) [Example 18A] ? < 1 nM

Entry to check: CCOc1ccc(OC)cc1C1(N2CC3(CN(C4CCN(C)CC4)C3)C2)C(=O)N(S(=O)(=O)c2ccc(OC)cc2)c2ccc(C#N)cc21 (racemic) [Example 5] 1 to 10 nM

Try this compound next: COc1ccc(S(=O)(=O)N2C(=O)C(c3ccccc3OC)(N3CC4(CC(N5CCN(C)CC5)C4)C3)c3cc(C#N)ccc32)nc1 (racemic) 1 to 10 nM

Follow-up item: CCOc1ccc(OC)cc1C1(N2CC3(CN(C4CCN(C)CC4)C3)C2)C(=O)N(S(=O)(=O)c2ccc(OC)cc2)c2ccc(C#N)cc21 (single isomer, unassigned; (-)) [Example 6] 10 to 100 nM

###

Read-out record for human vasopressin V1b receptor (Homo sapiens (Human), UniProt P47901): Ki

# Ki lookup, item CCOc1ccc(OC)cc1C1(N2CC3(CN(C4CCN(C)CC4)C3)C2)C(=O)N(S(=O)(=O)c2ccc(OC)cc2OC)c2ccc(C#N)cc21 (racemic) 10 to 100 nM

How about this compound: CCOc1ccc(OC)cc1C1(N2CC3(CN(C4CCN(C)CC4)C3)C2)C(=O)N(S(=O)(=O)c2ccc(C#N)cc2)c2ccc(C#N)cc21 (racemic) 10 to 100 nM

Another compound: CCOc1ncccc1C1(N2CC3(CN(C4CCN(C)CC4)C3)C2)C(=O)N(S(=O)(=O)c2ccc(OC)cn2)c2ccc(C#N)cc21 (single isomer, unassigned; (+)) < 1 nM

Ok, now CCOc1ccc(OC)cc1C1(N2CC3(CC(N4CCN(C)CC4)C3)C2)C(=O)N(S(=O)(=O)c2ccc(OC)cn2)c2ccc(C#N)cc21 (single isomer, unassigned; (+)) [Example 17B] < 1 nM

Same again, this time with CCOc1ccc(OC)cc1C1(N2CC3(CN(C4CCN(C)CC4)C3)C2)C(=O)N(S(=O)(=O)c2ccc(OC)cn2)c2ccc(C#N)cc21 (racemic) 1 to 10 nM

Then what about the compound COc1ccc(S(=O)(=O)N2C(=O)C(c3ccccc3OC)(N3CC4(CN(C5CCN(C)CC5)C4)C3)c3cc(C#N)ccc32)nc1 (racemic) [Example 18] ? < 1 nM

###

assayed system: human vasopressin V1a receptor (Homo sapiens (Human))
experiment summary: Vasopressin V1a receptor binding assay
applied conditions: selectivity quotient, human V1a vs human V1b receptor
quantity name: Ki(h-V1a)/ Ki(h-V1b)

[[record]]
compound = "CCOc1ccc(OC)cc1[C@]1(N2CC3(CN(C4CCN(C)CC4)C3)C2)C(=O)N(S(=O)(=O)c2ccc(Cl)cn2)c2ccc(C#N)cc21"
result = "+++ (>75)"

[[record]]
compound = "CCOc1ccc(OC)cc1C1(N2CC3(CC(N4CCN(C5COC5)CC4)C3)C2)C(=O)N(S(=O)(=O)c2ccc(OC)cn2)c2ccc(C#N)cc21 (racemic)"
result = "+++ (>75)"

[[record]]
compound = "CCOc1ccc(OC)cc1C1(N2CC3(CN(c4ccnc(C)c4)C3)C2)C(=O)N(S(=O)(=O)c2ccc(OC)cc2OC)c2ccc(C#N)cc21 (single isomer, unassigned; (+))"
result = "+++ (>75)"


###

assayed system: human vasopressin V1a receptor (Homo sapiens (Human))
experiment summary: Vasopressin V1a receptor binding assay
applied conditions: selectivity quotient, human V1a vs human V1b receptor
quantity name: Ki(h-V1a)/ Ki(h-V1b)

[[record]]
molecule = "CCOc1ccc(OC)cc1C1(N2CC3(CN(C4CCN(C)CC4)C3)C2)C(=O)N(S(=O)(=O)c2ccc(OC)cn2)c2ccc(C#N)cc21 (single isomer, unassigned; (-)) [Example 1B]"
assayed_system = "human vasopressin V1a receptor (Homo sapiens (Human))"
result = "+++ (>75)"

[[record]]
molecule = "COc1ccc(S(=O)(=O)N2C(=O)C(c3ccccc3OC)(N3CC4(CN(C5CCN(C)CC5)C4)C3)c3cc(C#N)ccc32)nc1 (racemic) [Example 18]"
assayed_system = "human vasopressin V1a receptor (Homo sapiens (Human))"
result = "+++ (>75)"


###

assayed system: human vasopressin V1a receptor (Homo sapiens (Human), UniProt P37288)
Sequence (P37288 whole entry): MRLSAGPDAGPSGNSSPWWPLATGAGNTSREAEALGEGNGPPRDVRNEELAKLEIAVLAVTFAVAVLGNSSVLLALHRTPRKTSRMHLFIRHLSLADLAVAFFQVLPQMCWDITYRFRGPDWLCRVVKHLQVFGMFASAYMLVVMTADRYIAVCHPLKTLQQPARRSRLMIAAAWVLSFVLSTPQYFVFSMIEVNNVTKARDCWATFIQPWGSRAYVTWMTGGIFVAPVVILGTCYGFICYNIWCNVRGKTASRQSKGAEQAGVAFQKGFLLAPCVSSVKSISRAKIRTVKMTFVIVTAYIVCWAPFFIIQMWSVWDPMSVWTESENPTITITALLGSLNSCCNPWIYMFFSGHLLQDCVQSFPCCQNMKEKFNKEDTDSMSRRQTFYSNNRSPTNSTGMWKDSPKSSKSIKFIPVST
experiment summary: Vasopressin V1a receptor binding assay
applied conditions: selectivity quotient, human V1a vs human V1b receptor
quantity name: Ki(h-V1a)/ Ki(h-V1b)

[[record]]
compound = "CCOc1ccc(OC)cc1C1(N2CC3(CC(N4CCN(C)CC4)C3)C2)C(=O)N(S(=O)(=O)c2ccc(OC)cn2)c2ccc(C#N)cc21 (single isomer, unassigned; (+)) [Example 17B]"
result = "+++ (>75)"

[[record]]
compound = "CCOc1ccc(OC)cc1C1(N2CC3(CN(C4CCN(C)CC4)C3)C2)C(=O)N(S(=O)(=O)c2ccc(OC)cn2)c2ccc(C#N)cc21 (racemic) [Example 1]"
result = "+++ (>75)"


###

assayed system: UniProt P37288
experiment summary: Vasopressin V1a receptor binding assay
applied conditions: selectivity quotient, human V1a vs human V1b receptor
Description: The test substances were dissolved in a concentration of 5 mM M in DMSO. Further dilution of these DMSO solutions took place as described for V1b. The membrane pellet was again homogenized in a High-Pressure-Homogenizer, Polytec 50K at 1500 PSI (Heinemann, Germany) and subsequently taken up in 50 mM Tris-HCl, pH 7.4, homogenized and stored in aliquots frozen in liquid nitrogen at −190° C. […] The binding parameters were calculated by nonlinear regression in SAS.
quantity name: Ki(h-V1a)/ Ki(h-V1b)

[[record]]
compound = "CCOc1ccc(OC)cc1[C@]1(N2CC3(CN(C4CCN(C)CC4)C3)C2)C(=O)N(S(=O)(=O)c2ccccn2)c2ccc(C#N)cc21 [Example 33]"
result = "+++ (>75)"

[[record]]
compound = "CCOc1ccc(OC)cc1C1(N2CC3(CN(C4CCN(C)CC4)C3)C2)C(=O)N(S(=O)(=O)c2ccc(C#N)cc2)c2ccc(C#N)cc21 (racemic) [Example 14]"
result = "+++ (>75)"

[[record]]
compound = "CCOc1ccc(OC)cc1C1(N2CC3(CC(N4CCN(C)CC4)C3)C2)C(=O)N(S(=O)(=O)c2ccc(OC)cn2)c2ccc(C#N)cc21 (racemic) [Example 17]"
result = "+++ (>75)"

[[record]]
compound = "CCOc1ccc(OC)cc1C1(N2CC3(CN(C4CCN(C)CC4)C3)C2)C(=O)N(S(=O)(=O)c2cccc3cccnc23)c2ccc(C#N)cc21 (racemic) [Example 3]"
result = "+++ (>75)"

